The measurements presented in this section are drawn from patent US20240132593A1.

Molecular target: Antibody No. 245.1
Assay: peptide blocking ELISA on plate-bound VISTA, peptide 2 ug/mL
Items are presented alongside their recorded percent reduction in ELISA signal.
Please reply with the bare figure in % and do not write the unit itself.

Guide cases for percent reduction in ELISA signal, answers given:
[
  {
    "binder": "SDHHGNFSITMRNLT (synthetic overlapping peptide from human VISTA) [Spiked Peptide 19 (SDHHGNFSITMRNLT)]",
    "result-unit": "%",
    "percent reduction in ELISA signal": 0
  },
  {
    "binder": "LYCCLVVEIRHHHSE (synthetic overlapping peptide from human VISTA) [Spiked Peptide 23 (LYCCLVVEIRHHHSE)]",
    "result-unit": "%",
    "percent reduction in ELISA signal": 9
  },
  {
    "binder": "VCPEGQNVTLTCRLL (synthetic overlapping peptide from human VISTA) [Spiked Peptide 3 (VCPEGQNVTLTCRLL)]",
    "result-unit": "%",
    "percent reduction in ELISA signal": 0
  }
]

Task item: # return recorded percent reduction in ELISA signal for input GHDVTFYKTWYRSSR (synthetic overlapping peptide from human VISTA) [Spiked Peptide 7 (GHDVTFYKTWYRSSR)]
Reply: 12

Task item: # return recorded percent reduction in ELISA signal for input AMELQVQTGKDAPSN (synthetic overlapping peptide from human VISTA) [Spiked Peptide 27 (AMELQVQTGKDAPSN)]
Reply: 0

Task item: # return recorded percent reduction in ELISA signal for input CSERRPIRNLTFQDL (synthetic overlapping peptide from human VISTA) [Spiked Peptide 11 (CSERRPIRNLTFQDL)]
Reply: 4

Task item: # return recorded percent reduction in ELISA signal for input PYSLYVCPEGQNVTL (synthetic overlapping peptide from human VISTA) [Spiked Peptide 2 (PYSLYVCPEGQNVTL)]
Reply: 1
